Kindly supply the reported Relative activity on ATP, pH 5 values for the records listed here.
experiment: pH profile of enzymes on 1 mM ATP; type: biochemical; details: 50 mM trisodium citrate/citric acid, 5 mM CaCl2, relative to the highest value
The answer should be a number; do not append a unit.

Asked: Please give measured Relative activity on ATP, pH 5 of the following entry: CRC25100: Acid phosphatase (Class A), internal database, SEQ ID NO:24 (protein, environmental sample) GENSGFLSPETSPNSLEILPPPPSEGSIAFLNDKANYDIGHTLKNEGRLAQAVSDANYKNLTDAFSKAFGETISEQNTPALYSLLQNVLQDSHDFAMRAAKDHYKRVRPFVIYKDHTCTPAEDTKMAKTGSYPSGHASFGWATALVLSEINPARETEILKRGYEFGQSRVICGAHWQSDVDSGRIMGAAVVASLHNNSDFISALAKAKEEFRKK
Given back: 0.8

Asked: Please give measured Relative activity on ATP, pH 5 of the following entry: CRC25085: Acid phosphatase (Class A), accession WP_092747651.1, SEQ ID NO:21 (protein, listed as Acinetobacter boissieri) LEQSNSFLQLAQVPDSLAIVPAPPAYNSVDFLRDKAAYDQAKSLVGTERWKVAAEDADLSDANIGKPFSQALGIEISPQNTPITYEILRKLRTDAGNYATKAAKEHYMRLRPFMFFNSHTCTPNDEANLSKNGAYPSGHTTIGWSSALVLAEIRPERQNEILQRGYEYGQSRVICGVHWQSDVDAGRITGSAIVARLHADKAFTKMLEEAKQEIQRKTK
Given back: 0.9

Asked: Please give measured Relative activity on ATP, pH 5 of the following entry: CRC25099: Acid phosphatase (Class A), accession WP_195761705.1, SEQ ID NO:23 (protein, listed as Pantoea sp.) LQSSGFLTAETAPDSLAILPPPPAENSVTFQSDKAQYEAGHVLRNVARTELASKDADYKNFGQAFSAAFGMEISESHTPVLYHLLSEVLQDSHDFAMRGAKDHYKRVRPFVIYKDSTCTPDKDKSMSTTGSYPSGHASFGWAAALILAEINPSRETEIIRRGYDFGESRVVCGAHWQSDVENGRIMGATVVASLHANAKFAELLSQAKNEFATLSAQDSK
Given back: 0.8
